Here the recorded protein stability index is given for each entry.
B1: SNX3 (parent)
chain: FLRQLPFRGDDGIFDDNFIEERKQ

Variants of: B1
Assay: protein stability index of a GFP-peptide fusion (GPS, HEK-293T) (PSI 1-6); higher = more stable;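 further: lentivirally expressed fusions sorted by FACS into six bins by GFP to DsRed ratio, PSI derived from sequencing read proportions per bin multiplied by bin number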
Details: c terminus: a fixed tail appended
Test Readout: protein stability index

INSERT INTO assay_data (mutation_string, recorded_number) VALUES
  ('R22W', 4.24),
  ('L5P', 3.78),
  ('F14E', 4.56),
  ('P6R', 3.1),
  ('G9L', 2.99),
  ('I19H', 2.92),
  ('R3I', 2.42),
  ('F18N', 4.16),
  ('I19T', 3.86),
  ('L5G', 3.74),
  ('R3E', 3.2),
  ('N17T', 3.22),
  ('D11G', 4.22),
  ('R22N', 3.78),
  ('Q24A', 3.3),
  ('I19C', 3.29),
  ('K23F', 2.9),
  ('I19N', 3.94),
  ('D16Y', 2.8),
  ('G9R', 3.27),
  ('N17Q', 3.71),
  ('K23A', 3.45);
